Listed here: items and their measured logD at 30 min.
assayInfo: Octanol-buffer distribution (log D7.4)
Type: physicochemical
runParameters: 1-octanol/PBS; mixing time 30 min, octanol/PBS pH 7.4

compound	logD at 30 min
CC(C)[C@@H](CN1CC[C@@](C)(c2cccc(O)c2)[C@@H](C)C1)NC(=O)[C@H]1Cc2ccc(O)cc2CN1	1.77
O=C1CC[C@@]2(O)[C@H]3Cc4ccc(O)c5c4[C@@]2(CCN3CC2CC2)[C@H]1O5 [Naltrexone, naltrexone]	0.88
Oc1ccc2c3c1O[C@H]1c4[nH]c5c(c4C[C@@]4(O)[C@@H](C2)N(CC2CC2)CC[C@]314)C[C@@]1(O)[C@H]2Cc3ccc(O)c4c3[C@@]1(CCN2CC1CC1)[C@H]5O4	1.57
N=C(N)Nc1ccc2[nH]c3c(c2c1)C[C@@]1(O)[C@H]2Cc4ccc(O)c5c4[C@@]1(CCN2CC1CC1)[C@H]3O5	-0.0527
